System: HUVEC
Experiment: Antiproliferative activity against HUVEC after 72 hrs by WST8 assay
Assay type: functional, cell-based
Conditions: Homo sapiens

[
  {
    "compound": "CC1(C)C=CC(=O)[C@@]2(C)OO[C@@H]3C[C@]12CCC3(O)CO (stereo partly specified)",
    "IC50": "900 nM"
  }
]
